// values below are AC50; system is Neuronal acetylcholine receptor subunit alpha-4 (Homo sapiens, UniProt P43681); further: assay procedure not described here
Sequence (P43681 whole entry): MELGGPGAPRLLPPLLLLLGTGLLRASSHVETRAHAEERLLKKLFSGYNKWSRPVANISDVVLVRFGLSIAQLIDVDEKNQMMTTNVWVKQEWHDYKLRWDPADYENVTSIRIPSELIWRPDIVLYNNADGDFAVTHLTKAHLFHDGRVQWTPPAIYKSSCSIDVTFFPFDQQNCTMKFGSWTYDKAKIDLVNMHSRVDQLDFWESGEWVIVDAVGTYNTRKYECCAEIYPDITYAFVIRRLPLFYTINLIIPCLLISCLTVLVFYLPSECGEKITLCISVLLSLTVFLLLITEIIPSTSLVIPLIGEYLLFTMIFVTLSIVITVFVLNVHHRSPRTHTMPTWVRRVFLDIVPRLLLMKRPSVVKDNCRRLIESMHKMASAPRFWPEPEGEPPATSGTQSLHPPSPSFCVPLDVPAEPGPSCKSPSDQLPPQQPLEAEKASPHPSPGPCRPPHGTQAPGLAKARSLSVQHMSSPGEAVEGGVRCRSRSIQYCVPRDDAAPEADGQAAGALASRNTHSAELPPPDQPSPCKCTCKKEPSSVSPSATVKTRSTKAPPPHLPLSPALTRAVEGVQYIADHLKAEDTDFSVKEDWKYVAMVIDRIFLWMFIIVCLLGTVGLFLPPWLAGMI
Measured attribute: AC50

In [3]: df
Out[3]:
                                   compound  measured_attribute  reported_measurement
0  CC(C)=CCOc1ccc(/C=C/C(=O)c2ccc(OCC=C(C)C)cc2OCC(=O)O)cc1 [SOFALCONE]                AC50               > 30 µM
1  CNC(=O)Oc1ccc2c(c1)[C@]1(C)CCN(C)[C@@H]1N2C [PHYSOSTIGMINE]                AC50               > 30 µM
2  N#C[C@@H]1CCCN1C(=O)CNC12CC3CC(CC(O)(C3)C1)C2 [VILDAGLIPTIN]                AC50               > 10 µM
3  NCCCC(O)(P(=O)(O)O)P(=O)(O)O [ALENDRONIC ACID]                AC50               > 10 µM
4  Nc1ccc(C(=O)O)c(O)c1 [AMINOSALICYLIC ACID]                AC50               > 30 µM
5  CNCCCC1c2ccccc2C=Cc2ccccc21 [PROTRIPTYLINE]                AC50               > 10 µM
6       CC(C)C[C@H](CN)CC(=O)O [PREGABALIN]                AC50               > 30 µM
7  C[C@]12CC[C@H](O)CC1=CC[C@@H]1[C@@H]2CC[C@]2(C)C(c3cccnc3)=CC[C@@H]12 [ABIRATERONE]                AC50               > 10 µM
8  Cc1cc(CC(=O)O)n(C)c1C(=O)c1ccc(Cl)cc1 [ZOMEPIRAC]                AC50               > 30 µM
